Target: mouse sEH (Mus musculus)
Construct: made in house; host or cells: baculovirus expression system
Sequence (P34914 whole entry): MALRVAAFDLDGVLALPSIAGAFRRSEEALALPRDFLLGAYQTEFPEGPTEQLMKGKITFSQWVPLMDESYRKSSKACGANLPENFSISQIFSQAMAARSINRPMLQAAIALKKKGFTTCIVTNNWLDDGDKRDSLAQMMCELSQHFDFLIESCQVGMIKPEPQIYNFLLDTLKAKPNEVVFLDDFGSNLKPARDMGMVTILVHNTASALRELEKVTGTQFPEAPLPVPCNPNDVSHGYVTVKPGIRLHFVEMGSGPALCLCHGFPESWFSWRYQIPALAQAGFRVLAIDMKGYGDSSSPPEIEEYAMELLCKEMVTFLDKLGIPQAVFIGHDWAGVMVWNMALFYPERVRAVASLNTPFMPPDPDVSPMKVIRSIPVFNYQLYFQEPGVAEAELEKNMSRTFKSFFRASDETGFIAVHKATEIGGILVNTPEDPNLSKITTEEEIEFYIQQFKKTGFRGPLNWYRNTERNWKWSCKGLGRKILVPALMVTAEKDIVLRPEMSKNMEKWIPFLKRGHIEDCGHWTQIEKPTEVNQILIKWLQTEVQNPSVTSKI
Assay: Inhibition of recombinant mouse sEH, IC50 assay with 4-nitrophenyl-trans-2,3-epoxy-3-phenylpropyl carbonate as substrate
Type: biochemical
Settings: Tables 17a and b; read-out: IC50 (μM) Mouse sEH
Measured IC50 accompanies every entry in the list below.
Write the number in µM without appending the unit.

Solved entries (count: 3):
molecule | measured-quantity | readout-value
CCCCCOC(=O)CCCNC(=O)Cc1cccc(Cl)c1 [Compound 988] | IC50 | 2.9
O=C(NN1CCOCC1)NC12CC3CC(CC(C3)C1)C2 [Compound 1015] | IC50 | 1.3
CCCCC(O)CCCCNC(=O)NC12CC3CC(CC(C3)C1)C2 (stereo not shown) [Compound 994] | IC50 | 0.05

Now for another entry.
*Q* Kindly indicate its recorded IC50. Item: O=C(Cc1cccc(Cl)c1)NC1CCCCC1 [Compound 969]
*A* 0.56

###

Measured IC50 accompanies every entry in the list below.
Target: human sEH (Homo sapiens, UniProt P34913)
Construct: made in house; host or cells: baculovirus expression system
Sequence (P34913 whole entry): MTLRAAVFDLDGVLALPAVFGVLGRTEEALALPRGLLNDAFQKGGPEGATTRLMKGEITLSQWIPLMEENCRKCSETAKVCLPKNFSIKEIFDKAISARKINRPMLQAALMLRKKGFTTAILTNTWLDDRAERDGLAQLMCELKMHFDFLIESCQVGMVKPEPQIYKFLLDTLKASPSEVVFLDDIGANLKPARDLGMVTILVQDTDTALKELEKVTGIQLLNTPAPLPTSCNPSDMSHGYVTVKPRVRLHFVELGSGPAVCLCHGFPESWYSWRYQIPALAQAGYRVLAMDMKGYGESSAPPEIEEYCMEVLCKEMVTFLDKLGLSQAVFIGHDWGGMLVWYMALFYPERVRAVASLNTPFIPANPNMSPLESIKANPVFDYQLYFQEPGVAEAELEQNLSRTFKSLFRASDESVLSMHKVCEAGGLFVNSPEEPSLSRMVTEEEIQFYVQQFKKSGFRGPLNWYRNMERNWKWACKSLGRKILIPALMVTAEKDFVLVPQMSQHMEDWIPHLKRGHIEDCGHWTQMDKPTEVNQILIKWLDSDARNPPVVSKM
Test: Inhibition of recombinant human sEH, IC50 assay with 4-nitrophenyl-trans-2,3-epoxy-3-phenylpropyl carbonate as substrate
Assay type: biochemical
Settings: Tables 17a and b; read-out: IC50 (μM) Human sEH
Write the number in µM without appending the unit.

Solved entries (count: 5):
compound | unit-of-measurement | IC50
CCCCCOC(=O)CCCNC(=O)Cc1cccc(Cl)c1 | µM | 5
O=C(NCCCN1CCOCC1)NC12CC3CC(CC(C3)C1)C2 | µM | 6
CCCCCOC(=O)CCCn1ccn(C23CC4CC(CC(C4)C2)C3)c1=O | µM | 17
O=C(NCCCCCOCCCCCOCC(F)(F)F)NC12CC3CC(CC(C3)C1)C2 | µM | 0.16
CCOC(=O)c1ccc(C(OC(=O)CCCNC(=O)NC23CC4CC(CC(C4)C2)C3)c2ccccc2)cc1 (stereo not drawn) | µM | 0.1

*Q* Kindly indicate its recorded IC50. Item: CCCCC(C)OC(=O)CCCNC(=O)NC12CC3CC(CC(C3)C1)C2 (stereo not drawn)
*A* 0.13

*Q* Kindly indicate its recorded IC50. Item: CCOC(=O)c1ccc(COC(=O)C2CCCC(NC(=O)NC34CC5CC(CC(C5)C3)C4)C2)cc1 (stereo not drawn)
*A* 0.1

*Q* Kindly indicate its recorded IC50. Item: "CC(=O)Nc1ccc(CC(=O)NC23CC4CC(CC(C4)C2)C3)cc1"
*A* 35

*Q* Kindly indicate its recorded IC50. Item: "O=C(CCCCCCCCCCCNC(=O)NC12CC3CC(CC(C3)C1)C2)NS(=O)(=O)c1ccccc1"
*A* 0.1

*Q* Kindly indicate its recorded IC50. Item: "O=C(CCCCc1ccccc1)NC1CCCCC1"
*A* 1.6

*Q* Kindly indicate its recorded IC50. Item: CCCCCCCCC(NC(=O)CCCCCCCCCCCNC(=O)NC12CC3CC(CC(C3)C1)C2)C(=O)O (stereo not drawn)
*A* 0.24

###

Target: human sEH (Homo sapiens)
Construct: made in house; host or cells: baculovirus expression system
Test: Inhibition of recombinant human sEH, IC50 assay with 4-nitrophenyl-trans-2,3-epoxy-3-phenylpropyl carbonate as substrate
Format: biochemical
Details: Tables 17a and b; read-out: IC50 (μM) Human sEH
Exam item: assign true to entries whose IC50 is below 0.5 µM and false to entries at or above 0.5 µM. Note that a value of exactly 0.5 µM receives false.

Record excerpt, results attached:
compound | qualitative-label
O=C(CCCNC(=O)NC12CC3CC(CC(C3)C1)C2)NC(C(=O)N1CCCC1C(=O)O)c1c[nH]cn1 (stereo not shown) [Compound 1012] | false
O=C(CC12CC3CC(CC(C3)C1)C2)NCCCc1ccccc1 [Compound 967] | true
CCCCC(CC)OC(=O)CCCNC(=O)NC12CC3CC(CC(C3)C1)C2 (stereo not shown) [Compound 905] | true
O=C(CC1CCCCC1)NCCCc1ccccc1 [Compound 990] | false
CCCCC(CO)NC(=O)Nc1cccc(Cl)c1 (stereo not shown) [Compound 978] | false

*Q* Quick check: IC50 of CS(=O)(=O)NCCCCCCCCCCCCNC(=O)NC12CC3CC(CC(C3)C1)C2 [Compound 901] under 0.5 µM?
*A* true

*Q* Quick check: IC50 of O=C(NC12CC3CC(CC(C3)C1)C2)C(F)(F)C(F)(F)C(F)(F)C(F)(F)C(F)(F)C(F)(F)C(F)(F)C(F)(F)C(F)(F)C(F)(F)C(F)(F)F [Compound 903] under 0.5 µM?
*A* true
